- Tested on: lipase
- assay_text: Lipase/lipolysis assay (EnzChek Lipase Substrate, quenched BODIPY-fatty acid conjugate) on stored human milk; further: test concentration or dose not given here
property_measured: Lipase (RFU)

compound	target	Lipase (RFU)
C[C@@H]1CC[C@@]2(NC1)O[C@H]1C[C@H]3[C@@H]4CC=C5C[C@@H](O)CC[C@]5(C)[C@H]4CC[C@]3(C)[C@H]1[C@@H]2C	lipase	1073.206 RFU
CCCCC/C=C/C/C=C/CCCCCCCC(=O)O	lipase	831.2921 RFU

Hi there! I need Lipase (RFU) for each item below, if you can.
1. Oc1cc(O)c2c(c1)OC1(c3ccc(O)c(O)c3)Oc3cc(O)c4c(c3C2C1O)OC(c1ccc(O)c(O)c1)C(O)C4 (stereo not shown)
2. CCCCC/C=C\C/C=C\CCCCCCCC(=O)O[C@H]1CC[C@@]2(C)C(=CC[C@H]3[C@@H]4CC[C@H]([C@H](C)CCCC(C)C)[C@@]4(C)CC[C@@H]32)C1 [Cholesteryl linoleate]
3. O.O=C[C@H](O)[C@@H](O)[C@@H](O)[C@H](O)C(=O)O [D-(+)-Galacturonic acid monohydrate]
4. COc1ccc(-c2oc3c(OC)c(O)cc(O)c3c(=O)c2O)cc1
5. CCCCCC(=O)O[C@H](CC(=O)[O-])C[N+](C)(C)C

[out]
1206.886 RFU
922.3562 RFU
324.895 RFU
894.1495 RFU
948.6206 RFU

----------
- Tested on: lipase
- assay_text: Lipase/lipolysis assay (EnzChek Lipase Substrate, quenched BODIPY-fatty acid conjugate) on stored human milk; further: test concentration or dose not given here
Tag: t if measured Lipase (RFU) is not below 900 RFU, f if it is.

Example entries and their recorded answers appear below.
compound	qualitative_label
COC1=CC(=O)C=C(OC)C1=O [2,6-Dimethoxy-1,4-benzoquinone]	t
C=C(C)[C@@H](O)COc1c2ccoc2cc2oc(=O)ccc12 [Pangelin]	f
CC(=O)C1=CC[C@H]2[C@@H]3CCC4=CC(=O)CC[C@]4(C)[C@H]3CC[C@]12C [Compound 16-Dehydroprogesterone]	t
COc1ccc2c(c1OC)CN(C)CCc1cc3c(cc1C(=O)C2)OCO3 [Allocryptopine]	t
C[C@@H]1O[C@@H](O[C@@H]2[C@@H](O)[C@H](O)[C@@H](CO)O[C@H]2c2c(O)cc(O)c3c(=O)cc(-c4ccc(O)cc4)oc23)[C@H](O)[C@H](O)[C@H]1O [Vitexin-2″-O-rhamnoside]	f

[in] Could you verify whether the entry O=C(CO)[C@H](O)[C@H](O)[C@H](O)CO [D-Psicose] shows Lipase (RFU) of no less than 900 RFU?
[out] t

[in] Form field: Lipase (RFU) at least 900 RFU? Entry: C[C@H](CCC(=O)NCCS(=O)(=O)[O-])[C@H]1CC[C@H]2[C@@H]3[C@@H](O)C[C@@H]4C[C@H](O)CC[C@]4(C)[C@H]3CC[C@]12C.[Na+] [Tauroursodeoxycholate (sodium)]
[out] t

[in] Kindly determine if Lipase (RFU) recorded for N[C@@H](C(=O)O)[C@@H](O)[C@H](O)[C@H](O)CO [D-Glucosaminic Acid] is above or exactly 900 RFU.
[out] f

[in] Hello, I need to know if NC(=O)OP(=O)(O)O [Carbamyl Phosphate] has measured Lipase (RFU) not below 900 RFU. Thanks!
[out] f

[in] Confirm if Lipase (RFU) reported for the compound COc1c2ccoc2c(O)c2oc(=O)ccc12 [Compound 8-Hydroxybergapten] is 900 RFU or above.
[out] f

[in] Lipase (RFU) >= 900 RFU for OCc1c[nH]c2ccccc12 [Indole-3-carbinol] ?
[out] t

[in] Decide: Lipase (RFU) of C=C(C)[C@H]1Cc2c(ccc3c2O[C@@H]2COc4cc(OC)c(OC)cc4[C@@H]2C3=O)O1 [Rotenone] >= 900 RFU?
[out] f

[in] Assess whether reported Lipase (RFU) for O=C1O[C@H]2[C@@H]3OC(=O)c4cc(O)c(O)c(O)c4-c4c(O)c(O)c5oc(=O)c6c(c(O)c(O)c7oc(=O)c4c5c76)-c4c(cc(O)c(O)c4O)C(=O)OC[C@H]3OC(O)[C@@H]2OC(=O)c2cc(O)c(O)c(O)c2-c2c1cc(O)c(O)c2O (mixture of isomers) [Punicalagin] sits at 900 RFU or higher.
[out] f

[in] Lipase (RFU) >= 900 RFU for CC(C(=O)c1ccc(O)cc1O)c1ccc(O)cc1 (stereo not shown) [O-Desmethylangolensin] ?
[out] f

[in] Is Lipase (RFU) for Nc1ncnc2c1ncn2C1OC(CO)C2OP(=O)(O)OC21 (stereo not shown) [Adenosine-2′,3′-cyclic monophosphate] at or above 900 RFU?
[out] f

[in] Check if Lipase (RFU) >= 900 RFU (inclusive). Item: O=C(O)[C@H]1O[C@@H](Oc2c(-c3ccc(O)cc3)oc3cc(O)cc(O)c3c2=O)[C@H](O)[C@@H](O)[C@@H]1O [Kaempferol 3-O-β-D-glucuronide]
[out] t

[in] Answer whether Lipase (RFU) of CCCCCCCCCCCCCCCC(=O)OC[C@H](COP(=O)([O-])OCC[N+](C)(C)C)OC(=O)CCCCCCCCCCCCCCC [DPPC] is greater than or equal to 900 RFU.
[out] t

[in] Given CCCCCC1CCCC(=O)O1 (stereo not shown) [δ-Decalactone] , state whether its Lipase (RFU) is at least 900 RFU.
[out] t

[in] Hello, I need to know if NC(=O)CCCCC1CCSS1 (racemic) [D,L-Lipoamide] has measured Lipase (RFU) not below 900 RFU. Thanks!
[out] t

[in] Reported Lipase (RFU) at or above 900 RFU? COc1c(O)cc2oc(-c3ccc(O)c(O)c3)cc(=O)c2c1O [Nepetin]
[out] f

[in] Answer whether Lipase (RFU) of CC(C)=CCC[C@](C)(O)[C@H]1CC[C@]2(C)[C@@H]1[C@H](O)C[C@@H]1[C@@]3(C)CC[C@H](O)C(C)(C)[C@@H]3[C@@H](O[C@@H]3O[C@H](CO)[C@@H](O)[C@H](O)[C@H]3O[C@@H]3O[C@@H](C)[C@H](O)[C@@H](O)[C@H]3O)C[C@]12C [Ginsenoside Rg2] is greater than or equal to 900 RFU.
[out] t

[in] Check the entry NC(=O)c1ccc[n+]([C@@H]2O[C@H](CO)[C@@H](O)[C@H]2O)c1.[Cl-] [Nicotinamide riboside (chloride)] : does Lipase (RFU) equal or exceed 900 RFU?
[out] t

[in] Kindly determine if Lipase (RFU) recorded for COc1ccc([C@@H]2CC(=O)c3c(O)cc(O[C@@H]4O[C@H](CO)[C@@H](O)[C@H](O)[C@H]4O)cc3O2)cc1 [Isosakuranin] is above or exactly 900 RFU.
[out] f

[in] Identify whether the reported Lipase (RFU) of the following compound is 900 RFU or greater: CC(C)(C)CC(C)(C)c1ccc(O)cc1 [Compound 4-tert-Octylphenol, 4-tert-Octylphenol]
[out] f

[in] Can O=C(O)[C@@H]1C[C@H](O)CN1 [cis-4-Hydroxy-L-proline] be said to have Lipase (RFU) at or above 900 RFU?
[out] t

[in] Check if Lipase (RFU) >= 900 RFU (inclusive). Item: C=C(CCC=C(C)C)[C@H]1CC[C@]2(C)[C@@H]1[C@H](O)C[C@@H]1[C@@]3(C)CC[C@H](O)C(C)(C)[C@@H]3[C@@H](O[C@@H]3O[C@H](CO)[C@@H](O)[C@H](O)[C@H]3O[C@@H]3O[C@@H](C)[C@H](O)[C@@H](O)[C@H]3O)C[C@]12C [Ginsenoside Rg6]
[out] f
